Assay: in vitro
Conditions: human, hela cells, % viability
condition met if viability at 28.5 h, 10 µM is below 90%. condition not met if not; exact matches included in condition not met.

Completed entries (count: 6):
Oc1ccc2ccccc2c1/C=N/Nc1nnn[nH]1; condition not met
CCNc1ncc(C(=O)N2CCC(Nc3cccnc3)CC2)s1; condition not met
O=S(=O)(Nc1cccnc1)N1CCOCC1; condition not met
CCc1onc(C)c1NC(=O)NC1CC2(CCCC2)Oc2ccccc21 (centres unmarked); condition not met
CN(C)c1cccc(Nc2cc(-c3cccc([N+](=O)[O-])c3)ncn2)c1; condition not met
CC(C)/N=C1/N[C@@H]2CS(=O)(=O)C[C@H]2O1 [CBK019692G]; condition met

Task item: Is viability at 28.5 h, 10 µM strictly under 90% for the entry O=C(O)CCC(=O)N1N=C2C(=Cc3ccc(F)cc3)CCCC2C1c1ccc(F)cc1 (centres unmarked) ?
Reply: condition not met

Task item: Is viability at 28.5 h, 10 µM strictly under 90% for the entry Cc1cc(C)nc(N2CCC(CC(=O)NCC(C)N3CCCCCC3)CC2)n1 (centres unmarked) ?
Reply: condition not met

Task item: Is viability at 28.5 h, 10 µM strictly under 90% for the entry CN1CC=C(/C=C/c2ccc(Sc3ncccn3)o2)CC1 ?
Reply: condition met

Task item: Is viability at 28.5 h, 10 µM strictly under 90% for the entry CCn1c(=O)n(CC(=O)N(C)C2CCCCC2)c2cccnc21 ?
Reply: condition met

Task item: Is viability at 28.5 h, 10 µM strictly under 90% for the entry CCc1cccc2c(CC(=O)N(C)CCN(C)C)c(C)[nH]c12 ?
Reply: condition not met

Task item: Is viability at 28.5 h, 10 µM strictly under 90% for the entry O=C(CSc1ncnc2c1oc1ccccc12)Nc1ccccc1F ?
Reply: condition met

Task item: Is viability at 28.5 h, 10 µM strictly under 90% for the entry O=C(NC(=S)Nc1cccc(-c2nc3ccccc3s2)c1)c1cc([N+](=O)[O-])ccc1N1CCOCC1 ?
Reply: condition not met

Task item: Is viability at 28.5 h, 10 µM strictly under 90% for the entry CC(C)(C)c1cc(-n2c(-c3cccnc3)nc3ccccc32)cc(C(C)(C)C)c1O ?
Reply: condition not met

Task item: Is viability at 28.5 h, 10 µM strictly under 90% for the entry O=C(c1cn2cc(-c3cccs3)n(CC3CC3)c(=O)c2n1)N1CC(O)C1 ?
Reply: condition not met

Task item: Is viability at 28.5 h, 10 µM strictly under 90% for the entry CCc1ccc(N(CC(=O)NCc2ccccn2)S(C)(=O)=O)cc1 ?
Reply: condition not met

Task item: Is viability at 28.5 h, 10 µM strictly under 90% for the entry Cc1nc[nH]c1CN(CCCn1ccnc1)Cc1ccccc1Cl ?
Reply: condition not met

Task item: Is viability at 28.5 h, 10 µM strictly under 90% for the entry Clc1ccc(COc2cccc3cccnc23)cn1 ?
Reply: condition not met
